Details: human
I'd be grateful if you could share measured ROR for these entries.

What the record says about O=C1NC(c2ccccc2)(c2ccccc2)C(=O)N1COP(=O)(O)O [fosphenytoin sodium] : ROR is 5.09

molecule O=P(O)(O)C(O)(Cn1ccnc1)P(=O)(O)O [zoledronic acid (Reclast), zoledronic acid] , ROR observed: 3.53

Please fill in: ROR reported for CC(C)C[C@H](CN)CC(=O)O [pregabalin] = 2.21

* * *

Details: human
Numbered stars: 1 amine (or outer) side, 2 acyl side, 3 side chain; on linkers, the order of the positions; unused ones are H or OH. Bridge positions count the residues as written; N and C are the ends. Square brackets hold non-standard residues; d marks the D form. Peptide text beside a SMILES is read from it. * marks the point of attachment. hTyr(3S-OH,4S-OH,3'-OSO3H) = N[C@H](C(=O)O)[C@H](O)[C@@H](O)c1ccc(O)c(OS(=O)(=O)O)c1; Orn(4R-OH,5R-OH) = O=C([C@H](C[C@@H](O)[C@@H](O)N[*:3])N[*:1])[*:2]; Pro(3S-OH,4S-Me) = C[C@H]1CN[C@H](C(=O)O)[C@H]1O; X1 = CCCCCOc1ccc(-c2cc(-c3ccc(C(=O)*)cc3)no2)cc1; Gln(3R-OH) = NC(=O)C[C@@H](O)[C@H](N)C(=O)O; Hyp = O=C(O)[C@@H]1C[C@@H](O)CN1
What Outcome was measured for each of the following?

Outcome reading for `O=C1CCCC(=O)C1C(=O)c1ccc(C(F)(F)F)cc1[N+](=O)[O-]` : 23.09

The molecule `CC(C)C[C@H](CN)CC(=O)O` showed Outcome equal to 8.25

Given item `N#Cc1ccccc1-c1cc(-c2ccccn2)cn(-c2ccccc2)c1=O` , the value recorded as its Outcome is 14.67

Measured Outcome, `Nc1nc(Cl)nc2c1ncn2[C@@H]1O[C@H](CO)[C@@H](O)[C@@H]1F` : 23.27

// Outcome value for `C[C@H]1[C@H](NC(=O)/C(=N\OC(C)(C)C(=O)O)c2csc(N)n2)C(=O)N1S(=O)(=O)O` : 22.41

Documented Outcome of `O=C1CN=C(c2ccccc2Cl)c2cc([N+](=O)[O-])ccc2N1` : 15.34

Measured Outcome of CCCCCOc1ccc(-c2cc(-c3ccc(C(=O)N[C@H]4C[C@@H](O)[C@@H](O)NC(=O)[C@@H]5[C@@H](O)[C@@H](C)CN5C(=O)[C@H]([C@H](O)CC(N)=O)NC(=O)[C@H]([C@H](O)[C@@H](O)c5ccc(O)c(OS(=O)(=O)O)c5)NC(=O)[C@@H]5C[C@@H](O)CN5C(=O)[C@H]([C@@H](C)O)NC4=O)cc3)no2)cc1 [micafungin sodium] (X1-[Orn(4R-OH,5R-OH)]T[Hyp][hTyr(3S-OH,4S-OH,3'-OSO3H)][Gln(3R-OH)][Pro(3S-OH,4S-Me)]; lactam 1-C) : 22.48

Recorded result, CC1(C)O[C@@H]2[C@@H](CO[C@@]3(COS(N)(=O)=O)OC(C)(C)O[C@@H]23)O1 [topiramate] , Outcome: 11.96

* * *

Conditions: human
Structures can show the parent of a compound that is named as a salt.
endpointName: Outcome
// print number alone

Measured Outcome of Cc1ccsc1C(=CCCN1CCC[C@@H](C(=O)O)C1)c1sccc1C [tiagabine hydrochloride] : 12.04

The recorded Outcome for CNC[C@H](O)c1ccc(O)c(O)c1 [epinephrine injection, epinephrine] is 21.03

Outcome reading for O=C1NC(c2ccccc2)(c2ccccc2)C(=O)N1COP(=O)(O)O [fosphenytoin sodium] : 15.85

molecule CN(C)CCC=C1c2ccccc2C=Cc2ccccc21 [cyclobenzaprine hydrochloride] , Outcome observed: 22.45

# Outcome of NCC1(CC(=O)O)CCCCC1 [gabapentin] = 11.51

The molecule listed as NCCC(O)(P(=O)(O)O)P(=O)(O)O [pamidronate disodium] has a reported Outcome of 6.73

C=CC(N)CCC(=O)O (stereo not drawn) [vigabatrin] has a reported Outcome of 13.81

Recorded result, CN1CCN(C2=Nc3cc(Cl)ccc3Nc3ccccc32)CC1 [clozapine] , Outcome: 23.55

// sample CCCCCN(C)CCC(O)(P(=O)(O)O)P(=O)(O)O [ibandronate sodium] , its Outcome was 13.02

Provenance of the data: patent US20140358576A1
